Recorded EC50 for the following molecules
Experiment: Inhibition of HCV genotype 1b NS5A infected in HuH-7-Luc/Neo-ET cells assessed as reduction in viral replication measured by Luciferase reporter gene assay
Give a bare numeral; the unit pM is implied.

The following molecules have reported results that may help.
1. COC(=O)N[C@H](C(=O)N1CCC[C@H]1c1nc(-c2ccc(-c3ccc(-c4c[nH]c([C@@H]5CCCN5C(=O)[C@@H](NC(=O)OC)C(C)C)n4)cc3)cc2)c[nH]1)C(C)C [BMS-790052]: 32
2. COC(=O)N[C@H](C(=O)N1CC2(C[C@H]1c1ncc(-c3ccc(-c4ccc(-c5cnc([C@@H]6CC[C@H]7CCC[C@@H](N(C)C)C(=O)N76)[nH]5)cc4)cc3)[nH]1)OCCO2)C(C)C: 298

Next molecule, EC50 to be filled in.
Record summary for COC(=O)N[C@H](C(=O)N1CC2(C[C@H]1c1ncc(-c3ccc(-c4ccc(-c5cnc([C@@H]6CC[C@H]7CCC[C@@H](NC(=O)OC)C(=O)N76)[nH]5)cc4)cc3)[nH]1)OCCO2)C(C)C : reported EC50 = 47
